tested on: A-431; assay: cells; type: functional, cell-based, Homo sapiens; conditions: a-431
Description: SANGER: Inhibition of human A431 cell growth in a cell viability assay.
pIC50: −log10 of the molar value.
measuredQuantity: pIC50

Give pIC50 for Cc1cc([C@@H](C)Nc2ccccc2C(=O)O)c2nc(N3CCOCC3)cc(=O)n2c1 [AZD-6482] tested on A-431.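 Further: growth inhibition of A-431 cells, determined with a cell viability read-out.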
< 5.29

* * *

Give measured pIC50 for each item. Keep answers brief.
system: KGN; test: cells; type: functional, cell-based, Homo sapiens; conditions: Homo sapiens, KGN;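 further: growth inhibition of KGN cells, read out with a cell viability assay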
Description: SANGER: Inhibition of human KGN cell growth in a cell viability assay.
pIC50: −log10 of the molar value.

Answer with reported pIC50 of C=C1C(=O)O[C@@H]2C3O[C@]3(C)CC/C=C(\C)CC[C@@H]12 (some centres undefined)
< 5.30

Answer with reported pIC50 of CN(c1ncccc1CNc1nc(Nc2ccc3c(c2)CC(=O)N3)ncc1C(F)(F)F)S(C)(=O)=O
< 5.59

Answer with reported pIC50 of CCc1nc(N)nc(N)c1-c1ccc(Cl)cc1
< 4.70

Answer with reported pIC50 of CC(=O)O[C@@H]1[C@@H](OC(C)=O)[C@@H](O)[C@H](Oc2c(-c3ccc(O)cc3)oc3cc(O)cc(O)c3c2=O)O[C@H]1C
< 5.00

Answer with reported pIC50 of CCC1=C[C@@H]2CN(C1)Cc1c([nH]c3ccccc13)[C@@](C(=O)OC)(c1cc3c(cc1OC)N(C)[C@H]1[C@@](O)(C(=O)OC)[C@H](OC(C)=O)[C@]4(CC)C=CCN5CC[C@]31[C@@H]54)C2
8.15

Answer with reported pIC50 of COc1cc(F)c(F)c(Nc2ccc(I)cc2F)c1NS(=O)(=O)C1(CC(O)CO)CC1 (centres undefined)
5.55

Answer with reported pIC50 of O=c1cc(-c2cccc3c2Sc2ccccc2S3)oc(N2CCOCC2)c1
< 5.00

Answer with reported pIC50 of C=CCc1cccc(/C=N/NC(=O)CN2CCN(Cc3ccccc3)CC2)c1O
5.67

Answer with reported pIC50 of CC1=C2C[C@H]3[C@@H](CC=C4C[C@@H](O)CC[C@@]43C)[C@@H]2CC[C@]12O[C@@H]1C[C@H](C)CN[C@H]1[C@H]2C
< 4.80

* * *

system: LU-139; experiment: cells; format: functional, cell-based; details: Homo sapiens
Description: SANGER: Inhibition of human LU-139 cell growth in a cell viability assay.
Give measured pIC50 for each item. Keep answers brief.
Note on units: pIC50 is unitless, being -log10 of a concentration expressed in mol/L.

Answer with reported pIC50 of CCC(=O)N1CCN(c2ccc(-n3c(=O)ccc4cnc5ccc(-c6cnc7ccccc7c6)cc5c43)cc2C(F)(F)F)CC1
6.89

Answer with reported pIC50 of CN(C)C/C=C/C(=O)Nc1cc2c(Nc3ccc(F)c(Cl)c3)ncnc2cc1O[C@H]1CCOC1
6.52

* * *

tested on: NCI-H522; test: cells; format: functional, cell-based, Homo sapiens; settings: Homo sapiens, NCI-H522;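 further: cell viability assay measuring growth inhibition of human NCI-H522 cells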
Description: SANGER: Inhibition of human NCI-H522 cell growth in a cell viability assay.
measuredQuantity: IC50

Answer with reported IC50 of Cc1ccc(Nc2nccc(N(C)c3ccc4c(C)n(C)nc4c3)n2)cc1S(N)(=O)=O [PAZOPANIB]
> 8000 nM

Answer with reported IC50 of Cc1cnc(-c2cnc(NCCNc3ccc(C#N)cn3)nc2-c2ccc(Cl)cc2Cl)[nH]1 [LADUVIGLUSIB]
> 2560 nM

Answer with reported IC50 of C[C@]1(O)C[C@@H](c2nc(-c3ccc4ccc(-c5ccccc5)nc4c3)c3c(N)nccn32)C1 [LINSITINIB]
> 2560 nM

* * *

tested on: MKN-7; assay: cells; assay type: functional, cell-based, Homo sapiens; details: Homo sapiens, MKN-7
Description: SANGER: Inhibition of human MKN7 cell growth in a cell viability assay.
measuredQuantity: IC50

Answer with reported IC50 of O=C(NOCC1CC1)c1ccc(F)c(F)c1Nc1ccc(I)cc1Cl
> 10 µM

Answer with reported IC50 of COc1cc(F)c(F)c(Nc2ccc(I)cc2F)c1NS(=O)(=O)C1(CC(O)CO)CC1 (stereo not given)
> 5 µM

Answer with reported IC50 of O=C(c1cc(Cc2n[nH]c(=O)c3ccccc23)ccc1F)N1CCN(C(=O)C2CC2)CC1
> 5 µM

Answer with reported IC50 of C=CCNC1=C2C[C@@H](C)C[C@H](OC)[C@H](O)[C@@H](C)/C=C(\C)[C@H](OC(N)=O)[C@@H](OC)/C=C\C=C(/C)C(=O)NC(=CC1=O)C2=O
> 1 µM

Answer with reported IC50 of CN(Cc1cnc2nc(N)nc(N)c2n1)c1ccc(C(=O)N[C@@H](CCC(=O)O)C(=O)O)cc1 [METHOTREXATE]
> 0.2 µM

* * *

system: VA-ES-BJ; experiment: cells; format: functional, cell-based, Homo sapiens; conditions: Homo sapiens, VA-ES-BJ;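 further: growth inhibition of the VA-ES-BJ cell line, read out by a cell viability assay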
Description: SANGER: Inhibition of human VA-ES-BJ cell growth in a cell viability assay.
pIC50: −log10 of the molar value.
measuredQuantity: pIC50

Answer with reported pIC50 of C=CCNC1=C2C[C@@H](C)C[C@H](OC)[C@H](O)[C@@H](C)/C=C(\C)[C@H](OC(N)=O)[C@@H](OC)/C=C\C=C(/C)C(=O)NC(=CC1=O)C2=O
7.35

Answer with reported pIC50 of CN(Cc1cnc2nc(N)nc(N)c2n1)c1ccc(C(=O)N[C@@H](CCC(=O)O)C(=O)O)cc1 [METHOTREXATE]
< 6.70

Answer with reported pIC50 of COc1ccc(C2=N[C@@H](c3ccc(Cl)cc3)[C@@H](c3ccc(Cl)cc3)N2C(=O)N2CCNC(=O)C2)c(OC(C)C)c1
5.59

Answer with reported pIC50 of O=C(/C=C/c1ccccc1)NC(NC(=S)Nc1cccc2cccnc12)C(Cl)(Cl)Cl (configuration not stated)
< 4.80

Answer with reported pIC50 of C=C1C(=O)O[C@@H]2C3O[C@]3(C)CC/C=C(\C)CC[C@@H]12 (some centres not stated)
< 5.30

Answer with reported pIC50 of Cn1cc(C2=C(c3ccc(Cl)cc3Cl)C(=O)NC2=O)c2ccccc21
< 5.00

Answer with reported pIC50 of COc1cc(F)c(F)c(Nc2ccc(I)cc2F)c1NS(=O)(=O)C1(CC(O)CO)CC1 (configuration not stated)
< 5.30

* * *

test system: SR; assay: cells; assay type: functional, cell-based; details: Homo sapiens
Description: SANGER: Inhibition of human SR cell growth in a cell viability assay.
Give measured IC50 for each item. Keep answers brief.

Give IC50 for Cc1cnc(-c2cnc(NCCNc3ccc(C#N)cn3)nc2-c2ccc(Cl)cc2Cl)[nH]1 tested on SR.
> 2.56 µM

Give IC50 for CN1CCN(CCOc2cc(OC3CCOCC3)c3c(Nc4c(Cl)ccc5c4OCO5)ncnc3c2)CC1 tested on SR.
> 2 µM

Give IC50 for COc1cc([C@@H]2c3cc4c(cc3[C@@H](O[C@@H]3O[C@@H]5CO[C@@H](C)O[C@H]5[C@H](O)[C@H]3O)[C@H]3COC(=O)[C@H]23)OCO4)cc(OC)c1O [ETOPOSIDE] tested on SR.
0.443 µM

Give IC50 for CN(c1ncccc1CNc1nc(Nc2ccc3c(c2)CC(=O)N3)ncc1C(F)(F)F)S(C)(=O)=O tested on SR.
> 2.56 µM

Give IC50 for CCC1=C[C@@H]2CN(C1)Cc1c([nH]c3ccccc13)[C@@](C(=O)OC)(c1cc3c(cc1OC)N(C)[C@H]1[C@@](O)(C(=O)OC)[C@H](OC(C)=O)[C@]4(CC)C=CCN5CC[C@]31[C@@H]54)C2 tested on SR.
0.00584 µM

Give IC50 for C[C@]1(O)C[C@@H](c2nc(-c3ccc4ccc(-c5ccccc5)nc4c3)c3c(N)nccn32)C1 tested on SR.
> 2.56 µM

Give IC50 for CNC(=O)c1cc(Oc2ccc(NC(=O)Nc3ccc(Cl)c(C(F)(F)F)c3)cc2)ccn1 tested on SR.
> 4 µM

* * *

test system: NCI-H446; test: cells; assay type: functional, cell-based; conditions: Homo sapiens
Description: SANGER: Inhibition of human NCI-H446 cell growth in a cell viability assay.
Give measured IC50 for each item. Keep answers brief.

Give IC50 for CC(=O)O[C@@H]1[C@@H](OC(C)=O)[C@@H](O)[C@H](Oc2c(-c3ccc(O)cc3)oc3cc(O)cc(O)c3c2=O)O[C@H]1C tested on NCI-H446.
> 10 µM

Give IC50 for COc1cc(F)c(F)c(Nc2ccc(I)cc2F)c1NS(=O)(=O)C1(CC(O)CO)CC1 (stereo not drawn) tested on NCI-H446.
> 5 µM

Give IC50 for Cn1cncc1[C@@](N)(c1ccc(Cl)cc1)c1ccc2c(c1)c(-c1cccc(Cl)c1)cc(=O)n2C tested on NCI-H446.
> 16 µM

Give IC50 for C=CCc1cccc(/C=N/NC(=O)CN2CCN(Cc3ccccc3)CC2)c1O tested on NCI-H446.
> 2.56 µM

Give IC50 for CN(C)C/C=C/C(=O)Nc1cc2c(Nc3ccc(F)c(Cl)c3)ncnc2cc1O[C@H]1CCOC1 tested on NCI-H446.
> 0.5 µM

Give IC50 for CS(=O)(=O)CCNCc1ccc(-c2ccc3ncnc(Nc4ccc(OCc5cccc(F)c5)c(Cl)c4)c3c2)o1 tested on NCI-H446.
> 2 µM

Give IC50 for COC(=O)CNC(=O)C(=O)OC tested on NCI-H446.
646 µM

Give IC50 for Cc1cnc(-c2cnc(NCCNc3ccc(C#N)cn3)nc2-c2ccc(Cl)cc2Cl)[nH]1 tested on NCI-H446.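 Further: growth inhibition of NCI-H446 cells determined by a cell viability assay.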
> 2.56 µM

// provenance: ChEMBL document CHEMBL1201861
